target: T1, human IL-23 (human, UniProt P29460 23-328; Q9NPF7 20-189)
T1 construct: Recombinant (Ebioscience); HIS-tagged in flow cytometry, biotinylated in some assays; also called hIL-23; rhIL-23
T1 sequence 1: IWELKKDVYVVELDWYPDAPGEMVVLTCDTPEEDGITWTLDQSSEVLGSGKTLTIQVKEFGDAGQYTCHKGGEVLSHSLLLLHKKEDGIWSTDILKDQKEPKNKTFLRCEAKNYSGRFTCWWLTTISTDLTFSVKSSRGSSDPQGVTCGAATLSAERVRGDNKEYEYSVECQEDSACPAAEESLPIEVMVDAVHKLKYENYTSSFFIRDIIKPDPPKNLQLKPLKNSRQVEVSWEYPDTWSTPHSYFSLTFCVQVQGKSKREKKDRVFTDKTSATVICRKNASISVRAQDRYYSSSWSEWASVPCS
T1 sequence 2: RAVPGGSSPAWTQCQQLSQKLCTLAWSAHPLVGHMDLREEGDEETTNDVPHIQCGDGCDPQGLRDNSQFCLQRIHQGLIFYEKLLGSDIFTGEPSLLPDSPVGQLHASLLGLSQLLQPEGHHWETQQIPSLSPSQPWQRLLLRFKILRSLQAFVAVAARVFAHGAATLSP
testProtocol: SPR, purified scFv captured via FLAG
reportedProperty: kon (M⁻¹ s⁻¹)
The response must be a number in M⁻¹ s⁻¹ with no trailing unit.

The reported value for scFv AX-G4 (scFv, scFv-80 variant: VL S26P; not shown: proprietary C-terminal FLAG tag) scFv: QVQLVQSGAEVKKPGASVKVSCKASGYTFTDYYLHWVRQAPGQGLEWMGWIDPENGDTEYAPKFQGRVTMTTDTSTSTAYMELRSLRSDDTAVYYCNANKELRYFDVWGQGTMVTVSSGGGGSGGGGSGGGGSEIVMTQSPATLSVSPGERATLSCRAPQSISINLHWYQQKPGQAPRLLIYFASQSISGIPARFSGSGSGTEFTLTISSLQSEDFAVYYCQQSNSFPLTFGGGTKVEIKR in terms of kon is 360000

The reported value for scFv CU-A6 (scFv, scFv-80 variant: VH F29L, T107A; VL S63F; not shown: proprietary C-terminal FLAG tag) scFv: QVQLVQSGAEVKKPGASVKVSCKASGYTLTDYYLHWVRQAPGQGLEWMGWIDPENGDTEYAPKFQGRVTMTTDTSTSTAYMELRSLRSDDTAVYYCNANKELRYFDVWGQGAMVTVSSGGGGSGGGGSGGGGSEIVMTQSPATLSVSPGERATLSCRASQSISINLHWYQQKPGQAPRLLIYFASQSISGIPARFFGSGSGTEFTLTISSLQSEDFAVYYCQQSNSFPLTFGGGTKVEIKR in terms of kon is 300000

The reported value for scFv AQ-G10 (scFv, scFv-80 variant: VH K12E, R66G; not shown: proprietary C-terminal FLAG tag) scFv: QVQLVQSGAEVEKPGASVKVSCKASGYTFTDYYLHWVRQAPGQGLEWMGWIDPENGDTEYAPKFQGGVTMTTDTSTSTAYMELRSLRSDDTAVYYCNANKELRYFDVWGQGTMVTVSSGGGGSGGGGSGGGGSEIVMTQSPATLSVSPGERATLSCRASQSISINLHWYQQKPGQAPRLLIYFASQSISGIPARFSGSGSGTEFTLTISSLQSEDFAVYYCQQSNSFPLTFGGGTKVEIKR in terms of kon is 280000
